# study-target: T1, TCE-20 (anti-CD3 scFv S110A; anti-TROP2 wt)
# T1 construct: scFv on the Fab heavy chain; also called TCE-20 (S110A)
# test-description: competition ELISA, TCE on captured CD3
Where no end group is shown, it is not given here.
reported-endpoint: IC50 (µM)

GSQCLGPEWEVCPY (cysteine pairing not given here; also: biotinylated, site not given here, mask peptide for the CD3 scFv) [Peptide-66] ... 721

1. VDCGPDGDESILCY (cysteine pairing not given here; also: biotinylated, site not given here, mask peptide for the CD3 scFv) [Peptide-71]
2. ASQCLGPEWEVCPY (cysteine pairing not given here; also: biotinylated, site not given here, mask peptide for the CD3 scFv) [Peptide-74]
Lab notebook, comparison: 1 versus 2 , higher IC50 goes to which? Write down the label of the entry you select. 2
(2: 86.6 µM, 1: 11.8 µM)
